Origin of values: paper PMC12040169

viability at 28.5 h, 10 µM reference
- testDetails: in vitro
- assayContext: human, hela cells, % viability
Could you give me the number in %? Just the number is fine.

Given the entry c1ccc(C(Nc2ncc(-c3cnccn3)c(-c3ccco3)n2)c2ccccc2)cc1 , report its measured viability at 28.5 h, 10 µM. 90

Given the entry N#C/C(=C/c1ccc(Sc2ccc(Cl)cc2)o1)c1ccc(C(=O)O)cc1 , report its measured viability at 28.5 h, 10 µM. 89.8

Given the entry CC(C)C[C@H]1NC(=O)[C@@H]2C[C@@H](NC(=O)CS(=O)(=O)c3ccccc3)CCN2C1=O , report its measured viability at 28.5 h, 10 µM. 89.1

Given the entry Cc1csc(NC(=O)c2cccn(Cc3cccc([N+](=O)[O-])c3)c2=O)n1 , report its measured viability at 28.5 h, 10 µM. 87.4

----------
- testDetails: in vitro
- assayContext: human, hela cells, % viability
Please use Satisfied for viability at 28.5 h, 10 µM under 90% and Not satisfied for everything else, ties included.

Example cases with answers are listed next.
molecule=O=C(c1ccno1)N1CCC(Cc2ccccc2)CC1 qualitativelabel="Not satisfied"
molecule=CN(C)CCN(C)C(=O)c1ccc(-c2cccc(C(=O)NCCO)c2)nc1NCC1CC1 qualitativelabel="Not satisfied"
molecule="CCn1cc(C(=O)N2CCOC(C(=O)O)C2)c(=O)c2ccc(C)nc21 (centres unmarked)" qualitativelabel=Satisfied
molecule=COC(=O)CC[C@H]1CNC(=O)[C@@H]2[C@@H](CCN2C)N1C qualitativelabel="Not satisfied"
molecule=Brc1ccc(-n2cc(-c3ccccc3)c3c(NCc4ccccn4)ncnc32)cc1 qualitativelabel="Not satisfied"

// next entry
State whether 90% exceeds viability at 28.5 h, 10 µM recorded for Cc1nc(-c2ccc(CNC(=O)c3cc(=O)[nH]c4ccccc34)o2)cs1 . Satisfied

----------
- testDetails: in vitro
- assayContext: human, hela cells, % viability
viability at 28.5 h, 10 µM reference
Could you give me the number in %? Just the number is fine.

Worked set:
compound="CC(C)Nc1cccnc1N1CCN(C(=O)c2cc3cc(NC(=O)N4CCOCC4)ccc3[nH]2)CC1 [CBK007872]" assayreadout="viability at 28.5 h, 10 µM" unitofmeasurement=% observedmeasurement=96.2
compound="Cc1nnc2sc(-c3ccc(CNC(=S)NC(=O)c4ccccc4[N+](=O)[O-])cc3)nn12 [CBK268588]" assayreadout="viability at 28.5 h, 10 µM" unitofmeasurement=% observedmeasurement=84.6
compound="CC(=O)N1CC[C@H]2NC(=O)CNC(=O)C3(CCCC[C@H]2C1)CCNCC3 [CBK292142]" assayreadout="viability at 28.5 h, 10 µM" unitofmeasurement=% observedmeasurement=93.8
compound="COc1ccc(C(NC(=O)C2CCN(C(=O)OC(C)C)CC2)c2ccccc2C)cn1 (stereo not shown) [CBK059704]" assayreadout="viability at 28.5 h, 10 µM" unitofmeasurement=% observedmeasurement=101
compound="O=S(=O)(NCCCN1CCOCC1)c1cc(C(F)(F)F)cc(C(F)(F)F)c1 [CBK005796]" assayreadout="viability at 28.5 h, 10 µM" unitofmeasurement=% observedmeasurement=91
compound="Cn1ccc2cc(-c3cn4ccnc4c(N4CCOCC4)n3)ccc21 [CBK066696]" assayreadout="viability at 28.5 h, 10 µM" unitofmeasurement=% observedmeasurement=89.1

# ---- query compound ----
Given the entry O=C(O)c1ccc(/C=N/c2ccc(S(=O)(=O)c3ccc(/N=C/c4ccc(C(=O)O)cc4)cc3)cc2)cc1 [CBK262038] , report its measured viability at 28.5 h, 10 µM. 92.4

----------
- testDetails: in vitro
- assayContext: human, hela cells, % viability
assayReadout: viability at 28.5 h, 10 µM (%)
Could you give me the number in %? Just the number is fine.

compound=CS(=O)(=O)N1CCN(c2ccc(NC(=O)CSc3nc(-c4ccccc4)cs3)cc2)CC1 unitofmeasurement=% observedmeasurement=91.2
compound=O=C(O)CCc1ccc(-c2cccs2)n1CCc1ccccc1 unitofmeasurement=% observedmeasurement=113
compound="Cc1ccnc2nc(C(=O)OC(C)C(=O)NC3CC3)nn12 (stereo not shown)" unitofmeasurement=% observedmeasurement=92.5
compound="NCCSC1CC(=O)N(Cc2ccc(F)cc2)C1=O (stereo not shown) [CBK269025C]" unitofmeasurement=% observedmeasurement=101
compound=CCCN1CCC(NCC(C)(C)CN(C)C)CC1 unitofmeasurement=% observedmeasurement=89.3

Given the entry C[C@@H]1CN(C(=O)c2ccc3[nH]cnc3c2)C[C@H](C)O1 , report its measured viability at 28.5 h, 10 µM. 106

Given the entry Cc1cc(C(=O)N2CCN(C)CC2)ccc1-c1cnc(N)c(-c2ccc(O)cc2)n1 , report its measured viability at 28.5 h, 10 µM. 94.8

Given the entry Cc1nn(C)c(C)c1CN(C)C(=O)CCC(C)N1CCCC1 (stereo not shown) , report its measured viability at 28.5 h, 10 µM. 101

----------
- testDetails: in vitro
- assayContext: human, hela cells, % viability
assayReadout: viability at 28.5 h, 10 µM (%)
Could you give me the number in %? Just the number is fine.

Worked set:
compound="CCOC(=O)c1cnc2ccc(OC)cc2c1Nc1ccc(OC)cc1 [CBK095337]" observedmeasurement=93.7
compound="CN(C)c1ncc(-c2ccc(Cl)cc2)c(C2CCCN2C(=O)CN2CCCC2)n1 (stereo not drawn) [CBK286037]" observedmeasurement=99.2
compound="O=C(Nc1ccc(F)c(F)c1)N[C@H]1CC[C@@]2(c3cccc(Br)c3)CCN(Cc3ccccc3)[C@H]2C1 [CBK047515]" observedmeasurement=107
compound="O=C(O)CC(Cc1ccc(Cl)cc1)C(=O)Nc1ccc([N+](=O)[O-])cc1 (stereo not drawn) [CBK261973]" observedmeasurement=89.7
compound="CC(=O)c1ccc(-c2cn3ccnc3c(N3CCN(C)CC3)n2)s1 [CBK037957]" observedmeasurement=94.4

Given the entry CCn1ncc(Cn2cc(NC(=O)C3CCCCC3C(=O)O)cn2)c1C (stereo not drawn) [CBK286859] , report its measured viability at 28.5 h, 10 µM. 98.9

Given the entry COc1ccc(CCNC(=S)n2cc(C)cn2)cc1OC [CBK267001] , report its measured viability at 28.5 h, 10 µM. 89

Given the entry FC(F)(F)c1nc2ccccc2nc1SCc1cccs1 [CBK103728] , report its measured viability at 28.5 h, 10 µM. 105

Given the entry COc1ccc(-n2cnc3ccccc3c2=O)cc1 [CBK288145] , report its measured viability at 28.5 h, 10 µM. 94.4

Given the entry Clc1nsnc1N1CCOCC1 [CBK019133] , report its measured viability at 28.5 h, 10 µM. 101

Given the entry CC1CCN(S(=O)(=O)c2cccc(S(=O)(=O)c3cccc(S(=O)(=O)N4CCC(C)CC4)c3)c2)CC1 [CBK261731] , report its measured viability at 28.5 h, 10 µM. 90

Given the entry COc1ccc([N+](=O)[O-])cc1COc1ccc2c(C(F)(F)F)cc(=O)oc2c1 [CBK265173] , report its measured viability at 28.5 h, 10 µM. 96.4

Given the entry O=C(Nc1ccccc1C(=O)N1CCN(Cc2ccccc2)CC1)c1ccc(F)cc1 [CBK264948] , report its measured viability at 28.5 h, 10 µM. 99.3

Given the entry O=C(NCCc1cccs1)NC1CCCc2c1cnn2CCO (stereo not drawn) [CBK306324] , report its measured viability at 28.5 h, 10 µM. 92.6

Given the entry CCCC/C=C/c1cncc(NC2CCC(N)CC2)n1 (stereo not drawn) [CBK037827] , report its measured viability at 28.5 h, 10 µM. 97.2

----------
- testDetails: in vitro
- assayContext: human, hela cells, % viability
Please use Met for viability at 28.5 h, 10 µM under 90% and Not met for everything else, ties included.

Example cases with answers are listed next.
compound=Cc1cc(-c2nc3ncccc3o2)ccc1NC(=S)NC(=O)c1cc2ccccc2o1 qualitativelabel=Met
compound="O=C1c2ccccc2C2OCc3ccccc3N12 (stereo not drawn)" qualitativelabel="Not met"
compound=O=C(OCc1ccccc1)N1CCC(n2ccn(C(=O)CCC3CCCC3)c2=O)CC1 qualitativelabel=Met
compound="Cc1csc(C(Cc2ccsc2)NC(=O)Cn2ccnc2)n1 (stereo not drawn)" qualitativelabel="Not met"
compound=Cc1ccc(-c2nc3ccccc3s2)cc1NC(=O)c1sc2ccccc2c1Cl qualitativelabel="Not met"

State whether 90% exceeds viability at 28.5 h, 10 µM recorded for Cn1ccnc1CN1C[C@@H]2CN(C(=O)C3CCCC3)C[C@]2(C(=O)O)C1 . Not met

----------
- testDetails: in vitro
- assayContext: human, hela cells, % viability
assayReadout: viability at 28.5 h, 10 µM
Write down the value, and be sure its unit follows.

Worked set:
compound="CC(=O)Oc1c(C)cc(CN(C)C(C)c2ccncc2)cc1C (centres unmarked)" observedmeasurement=73.2%
compound="CCOC(=O)C1CCCN(C(=O)Cn2cnc(-c3cccs3)cc2=O)C1 (centres unmarked)" observedmeasurement=89.3%
compound=CCOc1ccc(NC(=O)N(C)Cc2noc(CC(C)C)n2)cc1C#N observedmeasurement=85.2%
compound="O=C(c1cc(-c2cccnc2)[nH]n1)N1CCC(c2ccccc2)C1 (centres unmarked)" observedmeasurement=101%

Given the entry CCOc1ccc(N(Cc2cc3cc(C)ccc3nc2O)C(=O)c2ccccc2OC)cc1 , report its measured viability at 28.5 h, 10 µM. 103%
